- Test system: peripheral blood lymphocytes collected from swine exposed to ASFV
- Type: cell-based

substance	Number of Spots
1228 (SSYNRSLLH) [compound 1228]	15
458 (IVSEYINYLF) [compound 458]	16
1761 (SVYHVQEEL) [compound 1761]	12
1107 (RTIPVAWDRF) [compound 1107]	18
743 (SKFCNHMFF) [compound 743]	16
2193 (ALNRHITTY) [compound 2193]	12
1852 (HTLIISPEF) [compound 1852]	15
906 (WVGYNNVCYY) [compound 906]	12
2175 (RLYPHIFYR) [compound 2175]	16
1347 (LMSALKWPI) [compound 1347]	17
880 (SSIVFQHEM) [compound 880]	66
962 (TTLINCTY) [compound 962]	12
1049 (SLEFNTFYAF) [compound 1049]	15
